# Procedure Summary: In vitro thromboxane A2 antagonistic activity on aggregation of rabbit platelets induced by U-46,619 (4 uM)
pIC50: −log10 of the molar value.

Compound: CCCCCS(=O)(=O)NCC1Cc2ccc(CC(=O)O)cc2C1 (stereo not given)
Value Relation Sign: =
pIC50: 4.11

Compound: O=C(O)CCCc1ccc2c(c1)CC(CNS(=O)(=O)c1ccc(Cl)cc1)C2 (stereo not given)
Value Relation Sign: =
pIC50: 5.87

Compound: O=C(O)CCc1ccc2c(c1)CC(CNS(=O)(=O)c1ccc(Cl)cc1)C2 (stereo not given)
Value Relation Sign: =
pIC50: 6.80

Compound: O=C(O)Cc1ccc2c(c1)CC(CCCNS(=O)(=O)c1ccc(Cl)cc1)C2 (stereo not given)
Value Relation Sign: =
pIC50: 4.14

Compound: O=C(O)c1ccc2c(c1)CC(CCNS(=O)(=O)c1ccc(Cl)cc1)C2 (stereo not given)
Value Relation Sign: =
pIC50: 5.11

Compound: O=C(O)c1ccc2c(c1)CC(CCCCNS(=O)(=O)c1ccc(Cl)cc1)C2 (stereo not given)
Value Relation Sign: =
pIC50: 4.00

Compound: O=C(O)Cc1ccc2c(c1)CC(CNS(=O)(=O)Cc1ccccc1)C2 (stereo not given)
Value Relation Sign: <
pIC50: 4.00

Compound: O=C(O)Cc1ccc2c(c1)CC(CCCCNS(=O)(=O)c1ccc(Cl)cc1)C2 (stereo not given)
Value Relation Sign: <
pIC50: 4.00

Compound: O=C(O)Cc1ccc2c(c1)CC(CNS(=O)(=O)c1ccc(Cl)cc1)C2 (stereo not given)
Value Relation Sign: =
pIC50: 6.44

Compound: O=C(O)Cc1ccc2c(c1)CC(CNS(=O)(=O)c1cccnc1)C2 (stereo not given)
Value Relation Sign: <
pIC50: 4.00

----------
# Procedure Summary: In vitro thromboxane A2 antagonistic activity on aggregation of rabbit platelets induced by U-46,619 (4 uM)
pIC50: −log10 of the molar value.
Mark false (0) for pIC50 values under 6, and true (1) for everything at or above.

Compound: O=C(O)Cc1ccc2c(c1)CC(NS(=O)(=O)c1ccc(Cl)cc1)C2 (stereo unspecified)
Class Assignment: true (1)
--
Compound: O=C(O)Cc1ccc2c(c1)CC(CNS(=O)(=O)c1cccc3ccccc13)C2 (stereo unspecified)
Class Assignment: false (0)
--
Compound: O=C(O)Cc1ccc2c(c1)CC(CNS(=O)(=O)c1cccs1)C2 (stereo unspecified)
Class Assignment: false (0)
--
Compound: O=C(O)c1ccc2c(c1)CC(CCCNS(=O)(=O)c1ccc(Cl)cc1)C2 (stereo unspecified)
Class Assignment: false (0)
--
Compound: O=C(O)Cc1ccc2c(c1)CC(CNS(=O)(=O)C1CCCCC1)C2 (stereo unspecified)
Class Assignment: false (0)
--
Compound: O=C(O)Cc1ccc2c(c1)CC(CNS(=O)(=O)c1ccc(Cl)cc1)O2 (stereo unspecified)
Class Assignment: true (1)
--
Compound: O=C(O)CCCCc1ccc2c(c1)CC(CNS(=O)(=O)c1ccc(Cl)cc1)C2 (stereo unspecified)
Class Assignment: false (0)

----------
# IC50 values compiled below
# Procedure Summary: In vitro thromboxane A2 antagonistic activity on aggregation of rabbit platelets induced by U-46,619 (4 uM)

Molecule: O=C(O)Cc1ccc2c(c1)CC(CNS(=O)(=O)c1ccc3ccccc3c1)C2 (centres undefined)
Measurement Unit: nM
IC50: 950
--
Molecule: O=C(O)Cc1ccc2c(c1)CC(CNS(=O)(=O)c1ccccc1)C2 (centres undefined)
Measurement Unit: nM
IC50: 1020
--
Molecule: O=C(O)c1ccc2c(c1)CC(CNS(=O)(=O)c1ccc(Cl)cc1)C2 (centres undefined)
Measurement Unit: nM
IC50: 1320
--
Molecule: O=C(O)Cc1ccc2c(c1)CC(CCNS(=O)(=O)c1ccc(Cl)cc1)C2 (centres undefined)
Measurement Unit: nM
IC50: 1480
